Test system: MG-63 (osteosarcoma) cells
Assay: MTT cell growth inhibition, solid tumor cells
Assay type: cell-based
Conditions: Homo sapiens; MG-63, 72 h, MTT; read-out: IC50
Procedure: […] 6000 well-growing human solid tumor cells were obtained and inoculated into wells of a 96-well cell culture plate. […] Then the viable cell concentration was determined by the MTT method.

compound	test-target	IC50, µg/mL
C=CCN(C)CC(O)COc1c(OC)cc2c3c1Oc1cc4c(cc1OC)CCN(C)[C@H]4Cc1ccc(cc1)Oc1cc(ccc1OC)C[C@@H]3N(C)CC2 (stereo partly drawn)	MG-63 (osteosarcoma) cells	1.1
COc1ccc2cc1Oc1ccc(cc1)C[C@H]1c3cc(c(OC)cc3CCN1C)Oc1c(OC3CCCC3)c(OC)cc3c1[C@H](C2)N(C)CC3	MG-63 (osteosarcoma) cells	2.8
COc1ccc2cc1Oc1ccc(cc1)C[C@H]1c3cc(c(OC)cc3CCN1C)Oc1c(OCC(O)CN3CCSCC3)c(OC)cc3c1[C@H](C2)N(C)CC3 (stereo partly drawn)	MG-63 (osteosarcoma) cells	2
COc1ccc2cc1Oc1ccc(cc1)C[C@H]1c3cc(c(OC)cc3CCN1C)Oc1c(OCC(O)CN3CCN(C#N)CC3)c(OC)cc3c1[C@H](C2)N(C)CC3 (stereo partly drawn)	MG-63 (osteosarcoma) cells	1.6
COc1ccc2cc1Oc1ccc(cc1)C[C@H]1c3cc(c(OC)cc3CCN1C)Oc1c(OCC3CC3)c(OC)cc3c1[C@H](C2)N(C)CC3	MG-63 (osteosarcoma) cells	1.6
COc1cc(OC)cc(C(=O)Oc2c(OC)cc3c4c2Oc2cc5c(cc2OC)CCN(C)[C@H]5Cc2ccc(cc2)Oc2cc(ccc2OC)C[C@@H]4N(C)CC3)c1	MG-63 (osteosarcoma) cells	2

Hey, just so you know, these numbers are from patent US9328122B2.
